test: active hydride analysis of borane adducts ([BH3], by hydrolysis and hydrogen evolved); format: physicochemical; details: estimated by hydrolysis in water:glycerol:THF 1:1:1 and measuring hydrogen evolved
assay readout: [BH3] (M)
Give bare numbers, in M.

Consider the following illustrative entries.
> print(dat)
                                   compound  recorded.value
1  [BH3-][S+](CCOC)CCOB(OCC[S+]([BH3-])CCOC)OCC[S+]([BH3-])CCOC (stereo not shown) [9i]             6.0
2  [BH3-][S+](CCOCCOB(OCCOCC[S+]([BH3-])CCC(C)C)OCCOCC[S+]([BH3-])CCC(C)C)CCC(C)C (stereo not shown) [9e]             5.0
3  [BH3-][S+](CCOCCOB(OCCOCC[S+]([BH3-])C(C)(C)C)OCCOCC[S+]([BH3-])C(C)(C)C)C(C)(C)C (stereo not shown) [9d]             5.5

Documented [BH3] of [BH3-][S+](CCOB(OCC[S+]([BH3-])CCC(C)C)OCC[S+]([BH3-])CCC(C)C)CCC(C)C (stereo not shown) [9b] : 5.9
